TARGET ENTITY: von Willebrand factor (VWF) (Homo sapiens, UniProt P04275 P04275:764-2813)
TEST DETAILS: filter; Bmax 88%; 2 mM CaCl2, 37 C
ASSAY CONDITIONS: tags: factor VIII free human purified VWF, Haematologic Technologies Inc; label: 5'-32P
EXPERIMENTAL READOUT: Kd (nM)
Could you give me the number in nM? Just the number is fine.

binder="ACGAACUGCCCUCGUUUCAUCGACGCACAGACGU (ssRNA, 2'-F C9,C10,C11,C24,C26; ribo G25; rest 2'-OMe; 3' idT) [T86 vrt4]" experimental_readout=Kd experimental_result=12

GET /value?item= ACGAACUGCCCUCGUUUCAUCGACGCACAGACGU (ssRNA, 2'-F C9,C10,C11,C24,G25,C26; rest 2'-OMe; 3' idT) [T86 vrt7] &field=Kd returns 50
